Reported DC50 values follow for various compounds
Target: KRas-G12D (Homo sapiens, UniProt P01116, G12D)
Construct: insert the HiBiT tag onto the N-terminus of one or more of the endogenous KRas alleles; host or cells: AsPC-1 HiBiT-KRasG12D knock-in clone (one tagged allele, two untagged KRasG12D alleles)
Sequence (P01116 1-188 isoform P01116-2 G12D): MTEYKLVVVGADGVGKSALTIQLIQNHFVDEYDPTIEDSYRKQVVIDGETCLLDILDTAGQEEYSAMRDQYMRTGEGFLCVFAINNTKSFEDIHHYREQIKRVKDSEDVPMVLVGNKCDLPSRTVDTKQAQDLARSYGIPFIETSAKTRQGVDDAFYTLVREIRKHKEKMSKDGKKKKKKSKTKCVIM
Experiment: HiBiT Degradation Assay (G12D), AsPC-1 HiBiT-KRasG12D cells, 24 hr
Format: cell-based
Conditions: AsPC-1 cells
Reported endpoint: DC50

* CCc1cccc2cc(O)cc(-c3ncc4c(N5CC6CCC(C5)N6)nc(OC[C@]56CCCN5[C@@H](COC(=O)N5CCN(c7cccc8c7CN(C7CCC(=O)N(C)C7=O)C8=O)CC5)CC6)nc4c3F)c12 (stereo partly shown) | 0.25 to 1 µM
* C#Cc1c(F)ccc2cc(O)cc(-c3ncc4c(N5CC6CCC(C5)N6)nc(OCCN5CCC(OC6CCN(CC7CCN(c8ccc9c(c8F)CN(C8CCC(=O)NC8=O)C9=O)CC7)CC6)CC5)nc4c3F)c12 (stereo not shown) | < 5.1 µM
* C#Cc1c(F)ccc2cc(O)cc(-c3ncc4c(N5CC6CCC(C5)N6)nc(OCCN5CCC(CN6CCC(CC7CCN(c8ccc9c(c8Cl)CN(C8CCC(=O)NC8=O)C9=O)CC7)CC6)CC5)nc4c3F)c12 (stereo not shown) | < 5.1 µM
* CCc1cccc2cc(O)cc(-c3ncc4c(N5CC6CCC(C5)N6)nc(OCCN5CCC(COCC6CCN(c7ccc8c(c7)C(=O)N(C7CCC(=O)NC7=O)C8=O)CC6)CC5)nc4c3F)c12 (stereo not shown) | 0.25 to 1 µM
* CCc1c(F)ccc2cc(O)cc(-c3ncc4c(N5CC6CCC(C5)N6)nc(OC[C@@H]5C[C@@H](OC6CCN(CC7CCN(c8ccc9c(c8F)CN(C8CCC(=O)NC8=O)C9=O)CC7)CC6)CN5C)nc4c3F)c12 (stereo partly shown) | < 5.1 µM
* C#Cc1c(F)ccc2cc(O)cc(-c3ncc4c(N5CC6CCC(C5)N6)nc(OCCN5CCC6(CC5)CCN(CC5CCN(c7ccc8c(c7F)n(C)c(=O)n8C7CCC(=O)NC7=O)CC5)CC6)nc4c3F)c12 (stereo not shown) | < 5.1 µM
* C#Cc1c(F)ccc2cc(O)cc(-c3ncc4c(N5CC6CCC(C5)N6)nc(OCCN5CCC(CC6CCN(CC7CCN(c8ccc9c(c8F)CN(C8CCC(=O)NC8=O)C9=O)CC7)CC6)CC5)nc4c3F)c12 (stereo not shown) | < 5.1 µM
* C#Cc1c(F)ccc2cc(O)cc(-c3ncc4c(N5CC6CCC(C5)N6)nc(OCCN5CCC(CN6CCC(CC7CCN(c8cccc9c8CN(C8CCC(=O)NC8=O)C9=O)CC7)CC6)CC5)nc4c3F)c12 (stereo not shown) | < 5.1 µM
* CCc1cccc2cc(O)cc(-c3ncc4c(N5CC6CCC(C5)N6)nc(OCCN5CCC(CC6CCN(c7cccc8c7CN(C7CCC(=O)N(C)C7=O)C8=O)CC6)CC5)nc4c3F)c12 (stereo not shown) | 0.25 to 1 µM
* C#Cc1c(F)ccc2cc(O)cc(-c3ncc4c(N5CC6CCC(C5)N6)nc(OCCN5CCC(CC6CCN(CC7CCN(c8ccc9c(c8)CN([C@H]8CCC(=O)NC8=O)C9=O)CC7)CC6)CC5)nc4c3F)c12 | < 5.1 µM

###

Biological target: KRas-G12D (Homo sapiens, UniProt P01116, G12D)
Construct: insert the HiBiT tag onto the N-terminus of one or more of the endogenous KRas alleles; host or cells: AsPC-1 HiBiT-KRasG12D knock-in clone (one tagged allele, two untagged KRasG12D alleles)
Test: HiBiT Degradation Assay (G12D), AsPC-1 HiBiT-KRasG12D cells, 24 hr
Assay type: cell-based
Conditions: AsPC-1 cells
Reported endpoint: DC50

- C#Cc1c(F)ccc2cc(O)cc(-c3ncc4c(N5CC6CCC(C5)N6)nc(OCC5(CN6CCC(CC7CCN(c8ccc9c(c8F)CN(C8CCC(=O)NC8=O)C9=O)CC7)CC6)CC5)nc4c3F)c12 (stereo not shown): < 5100 nM
- CCc1cccc2cc(O)cc(-c3ncc4c(N5CC6CCC(C5)N6)nc(OC[C@@H]5C[C@@H](OC6CCN(CC7CCN(c8cccc9c8CN(C8CCC(=O)NC8=O)C9=O)CC7)CC6)CN5C)nc4c3F)c12 (stereo partly shown): < 5100 nM
- C#Cc1c(F)ccc2cc(O)cc(-c3ncc4c(N5CC6CCC(C5)N6)nc(OC[C@@H]5C[C@@H](OC6CCN(c7ccc8c(c7F)CN(C7CCC(=O)NC7=O)C8=O)CC6)CN5C)nc4c3F)c12 (stereo partly shown): < 5100 nM
- CCc1cccc2cc(O)cc(-c3ncc4c(N5CC6CCC(C5)N6)nc(OC[C@@H]5C[C@@H](OC6CCN(c7cccc8c7CN(C7CCC(=O)NC7=O)C8=O)CC6)CN5C)nc4c3F)c12 (stereo partly shown): > 1000 nM
- C#Cc1c(F)ccc2cccc(-c3ncc4c(N5CC6CCC(C5)N6)nc(OCCN5CCC(CC6CCN(CC7CCN(c8cccc9c8CN(C8CCC(=O)NC8=O)C9=O)CC7)CC6)CC5)nc4c3F)c12 (stereo not shown): > 1000 nM
- C#Cc1c(F)ccc2cc(O)cc(-c3ncc4c(N5CC6CCC(C5)N6)nc(OCCN5CCC6(CC5)CCN(CC5CCN(c7ccc8c(c7)n(C)c(=O)n8C7CCC(=O)NC7=O)CC5)CC6)nc4c3F)c12 (stereo not shown): < 5100 nM
- CCc1cccc2cc(O)cc(-c3ncc4c(N5CC6CCC(C5)N6C)nc(OC[C@@]56CCCN5[C@H](COC(=O)N5CCN(c7cccc8c7CN(C7CCC(=O)NC7=O)C8=O)CC5)CC6)nc4c3F)c12 (stereo partly shown): > 1000 nM
- CCc1cccc2cc(O)cc(-c3ncc4c(N5CC6CCC(C5)N6)nc(OCCN5CCC(C6CCN(c7ccc8c(c7)C(=O)N(C7CCC(=O)NC7=O)C8=O)CC6)CC5)nc4c3F)c12 (stereo not shown): 250 to 1000 nM
- CCc1cccc2cc(O)cc(-c3ncc4c(N5CC6CCC(C5)N6)nc(OCCN5CCN(CC6CCN(c7ccc(F)c(C(=O)NC8CCC(=O)NC8=O)c7)CC6)CC5)nc4c3F)c12 (stereo not shown): 250 to 1000 nM
- C#Cc1c(F)ccc2cccc(-c3ncc4c(N5CC6CCC(C5)N6)nc(OC[C@@]56CCCN5[C@H](CN5CCN(CC7CCN(c8ccc9c(c8)n(C)c(=O)n9C8CCC(=O)NC8=O)CC7)CC5)CC6)nc4c3F)c12 (stereo partly shown): < 5100 nM
- CCc1cccc2cc(O)cc(-c3ncc4c(N5CC6CCC(C5)N6)nc(OC[C@@]56CCCN5[C@H](COC(=O)N5CCN(c7cccc8c7CN(C7CCC(=O)N(C)C7=O)C8=O)CC5)CC6)nc4c3F)c12 (stereo partly shown): 250 to 1000 nM
- C#Cc1c(F)ccc2cc(O)cc(-c3ncc4c(N5CC6CCC(C5)N6)nc(OCCN5CCC6(CC5)CCN(CC5CCN(c7ccc8c(c7F)CN(C7CCC(=O)NC7=O)C8=O)CC5)CC6)nc4c3F)c12 (stereo not shown): < 5100 nM
- C#Cc1c(F)ccc2cc(O)cc(-c3ncc4c(N5CC6CCC(C5)N6)nc(OCC5(CN6CCN(CC7CCN(c8ccc9c(c8)n(C)c(=O)n9C8CCC(=O)NC8=O)CC7)CC6)CC5)nc4c3F)c12 (stereo not shown): < 5100 nM
- CCc1cccc2cc(O)cc(-c3ncc4c(N5CC6CCC(C5)N6)nc(OCCN5CCC(CN6CCC7(CC6)CN(c6cccc8c6CN(C6CCC(=O)NC6=O)C8=O)C7)CC5)nc4c3F)c12 (stereo not shown): 250 to 1000 nM
- CCc1cccc2cc(O)cc(-c3ncc4c(N5CC6CCC(C5)N6C)nc(OCCN5CCC(CC6CCN(CC7CCN(c8cccc9c8CN(C8CCC(=O)NC8=O)C9=O)CC7)CC6)CC5)nc4c3F)c12 (stereo not shown): > 1000 nM
- CCc1c(F)ccc2cc(O)cc(-c3ncc4c(N5CC6CCC(C5)N6)nc(OCCN5CCC(F)(CN6CCN(CC7CCN(c8ccc9c(c8)n(C)c(=O)n9C8CCC(=O)NC8=O)CC7)CC6)CC5)nc4c3F)c12 (stereo not shown): < 5100 nM
- C#Cc1c(F)ccc2cc(O)cc(-c3ncc4c(N5CC6CCC(C5)N6)nc(OCCN5CCC6(CC5)CCN(CC5CCN(c7cccc8c7CN(C7CCC(=O)NC7=O)C8=O)CC5)CC6)nc4c3F)c12 (stereo not shown): < 5100 nM
- CCc1cccc2cc(O)cc(-c3ncc4c(N5CC6CCC(C5)N6)nc(OC[C@@]56CCCN5[C@H](COC(=O)N5CCN(c7cccc8c7C(=O)N(C7CCC(=O)NC7=O)C8=O)CC5)CC6)nc4c3F)c12 (stereo partly shown): 100 to 5250 nM
- C#Cc1c(F)ccc2cc(O)cc(-c3ncc4c(N5CC6CCC(C5)N6)nc(OCCN5CCC(CN6CCC(CN7CCN(c8ccc9c(c8F)CN(C8CCC(=O)NC8=O)C9=O)CC7)CC6)CC5)nc4c3F)c12 (stereo not shown): < 5100 nM
